A set of compounds tested on Cytochrome P450 2C9 (Homo sapiens), with measured AC50:
parameter_measured: AC50

INSERT INTO assay_data (compound, readout_value) VALUES
  ('Cc1cccc(C)c1NC(=S)NC(=O)CCc1ccccc1', '25.1 µM (inconclusive)'),
  ('COc1ccccc1N(CC(=O)NCC1CCCO1)C(=O)CNS(=O)(=O)c1ccc(C)cc1 (stereo not given)', '31.6 µM (inconclusive)'),
  ('COc1ccc(C(=O)CN(C(=O)c2ccc(Cl)cc2)N2C(=O)c3ccccc3C2=O)cc1', '10 µM (inconclusive)'),
  ('Cc1cccc2c1Oc1ccccc1[C@@H]2NC(=O)c1ccc([N+](=O)[O-])cc1', '7.94 µM (inconclusive)'),
  ('O=C(OCC(=O)c1ccc([N+](=O)[O-])cc1)/C(=C\c1ccc(Cl)cc1)NC(=O)c1ccccc1', '0.0355 µM (inconclusive)'),
  ('CC(C)(C)c1nnc(NC(=O)NS(=O)(=O)c2ccccc2)s1', '10 µM (inconclusive)'),
  ('CC1CCN(CCOc2cc(Cl)ccc2Cl)CC1', '0.891 µM (inconclusive)'),
  ('O=C(c1ccc2c(=O)n(Cc3ccco3)c(=S)[nH]c2c1)N1CCN(c2ccccc2)CC1', '25.1 µM (inconclusive)'),
  ('O=C1CCC(c2ccc(-n3ccnc3)cc2)=NN1', '31.6 µM (inconclusive)'),
  ('CC(C)CNS(=O)(=O)c1cc(C(=O)N2CC(C)OC(C)C2)c(Cl)cc1Cl (stereo not given)', '25.1 µM (inconclusive)');

----------
- protocol_details: NIH3T3 cell viability loss – ATP luminescence, mouse fibroblasts, counter-screen, dose response (AID 2010);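 further: cells exposed to compound for about 90 hours before reading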
- Type: functional, cell-based
The source made the active and inactive calls.
parameter_measured: EC50

INSERT INTO measurements (smiles_notation, parameter_measured, readout_value) VALUES
  ('CCN(Cc1ccccc1)S(=O)(=O)c1ccc(C(=O)N(CCCN(C)C)c2nc3c(C)c(C)ccc3s2)cc1', 'EC50', '5.55 µM (active)'),
  ('O=[N+]([O-])c1ccc2[nH]c(-[n+]3c(-c4ccccc4)cc(-c4ccccc4)cc3-c3ccccc3)nc2c1', 'EC50', '> 60 µM (not active)'),
  ('O=C(NNC(=O)c1ccc([N+](=O)[O-])o1)c1ccccc1', 'EC50', '> 60 µM (not active)'),
  ('C=CCc1cccc(/C=N/NC(=O)c2ccccc2Br)c1O', 'EC50', '8.77 µM (active)'),
  ('Cc1ccc(S(=O)(=O)c2nc(NCc3ccc4c(c3)OCO4)sc2Cl)cc1', 'EC50', '> 60 µM (not active)'),
  ('COc1ccc(CNc2oc(COc3ccc(Cl)cc3)nc2C#N)cc1', 'EC50', '> 60 µM (not active)');

----------
Catalogue of AC50 readings, one per entry.
- assay_system: DNA repair protein RAD52 homolog (Homo sapiens)
- Sequence (P43351 whole entry): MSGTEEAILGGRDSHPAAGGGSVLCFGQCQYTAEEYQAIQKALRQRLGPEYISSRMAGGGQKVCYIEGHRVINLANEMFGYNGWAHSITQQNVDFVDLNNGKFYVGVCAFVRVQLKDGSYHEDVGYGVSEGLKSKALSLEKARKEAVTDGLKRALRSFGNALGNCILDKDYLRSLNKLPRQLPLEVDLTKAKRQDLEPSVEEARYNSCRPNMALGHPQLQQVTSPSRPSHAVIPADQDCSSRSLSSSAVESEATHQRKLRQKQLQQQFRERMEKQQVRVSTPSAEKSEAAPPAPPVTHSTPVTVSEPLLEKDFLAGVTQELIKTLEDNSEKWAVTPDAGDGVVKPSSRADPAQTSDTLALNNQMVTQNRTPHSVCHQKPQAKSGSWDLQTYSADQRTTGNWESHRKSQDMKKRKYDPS
- Type: functional, biochemical
The source made the active and inactive calls.
parameter_measured: AC50

INSERT INTO assay_data (smiles_notation, assay_system, readout_value) VALUES
  ('N=c1n(CCN2CCCCC2)c2ccccc2n1CC(=O)c1cccc([N+](=O)[O-])c1', 'DNA repair protein RAD52 homolog (Homo sapiens)', '9.9 µM (active)'),
  ('CN(C)CCN(C(=O)c1ccc2ccccc2c1)c1nc2cc3c(cc2s1)OCO3', 'DNA repair protein RAD52 homolog (Homo sapiens)', '28.3 µM (active)'),
  ('Cc1ccccc1Cn1c2ccccc2c2cnn(CC(=O)NCCCN3CCN(C)CC3)c(=O)c21', 'DNA repair protein RAD52 homolog (Homo sapiens)', '9.43 µM (active)'),
  ('COc1nc(NC(=N)N)nc2ccc(C)cc12', 'DNA repair protein RAD52 homolog (Homo sapiens)', '9.39 µM (active)');

----------
The source made the active and inactive calls.
A set of compounds tested on Estrogen receptor (Homo sapiens, UniProt P03372), with measured IC50:
parameter_measured: IC50

INSERT INTO measurements (compound, parameter_measured, readout_value) VALUES
  ('O=C(O)c1cc(-c2ccco2)nc2ccccc12', 'IC50', '23.4 µM (active)'),
  ('Cc1ccc(NC(=O)c2sc3nc4c(c(-c5ccco5)c3c2N)CCC4)cc1', 'IC50', '> 50 µM (not active)'),
  ('CCOc1cccc2cc(-c3cn4cc(C)ccc4n3)c(=O)oc12', 'IC50', '3.82 µM (active)'),
  ('NC(=O)COc1ccc(C2c3c(oc4ccccc4c3=O)C(=O)N2CC2CCCO2)cc1 (stereo not drawn)', 'IC50', '> 50 µM (not active)'),
  ('COc1ccc(OCCC(=O)OCC(=O)NCc2ccco2)cc1', 'IC50', '33.3 µM (not active)'),
  ('Cc1nc2sccn2c1-c1nc(-c2cc3ccccc3o2)cs1', 'IC50', '10.7 µM (active)'),
  ('Cc1ccc(S(=O)(=O)Cc2ccc(C(=O)NCc3ccc4c(c3)OCO4)o2)cc1', 'IC50', '37.5 µM (not active)'),
  ('COc1ccc2nc3oc(C(=O)N4CCN(c5cccc(C(F)(F)F)c5)CC4)cc3cc2c1', 'IC50', '15.4 µM (active)');

----------
- protocol_details: viability of HCT116 lacking mutant beta-catenin – cell-based, human colon tumor, dose response (AID 1045);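 further: HCT116 colon tumor cells with beta catenin knocked out; cells exposed to compound for 60 hours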
- Type: functional
Activity calls are given as the source filed them.
parameter_measured: EC50

INSERT INTO measurements (smiles_notation, readout_value) VALUES
  ('Cc1ccc(C)c(Oc2cc(NC(=O)CCCn3nc(C)c([N+](=O)[O-])c3C)cc([N+](=O)[O-])c2)c1', '18.9 µM (active)'),
  ('CCOc1cccc2cc(-c3cn4cc(C)ccc4n3)c(=O)oc12', '2.46 µM (active)'),
  ('CCOc1ccc(NCc2nnc(SCC(=O)Nc3nc(-c4ccccc4)cs3)n2-c2ccccc2)cc1', '3.28 µM (active)'),
  ('COC(=O)c1ccc2c(c1)C(=O)/C(=C/c1ccc(C)cc1)O2', '17.2 µM (active)');

----------
- assay_system: Sentrin-specific protease 6 (Homo sapiens);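 further: Luminescence-based dose-response confirmatory assay of SENP6 inhibition, following up an ultra-high-throughput screen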
- Sequence (Q9GZR1 whole entry): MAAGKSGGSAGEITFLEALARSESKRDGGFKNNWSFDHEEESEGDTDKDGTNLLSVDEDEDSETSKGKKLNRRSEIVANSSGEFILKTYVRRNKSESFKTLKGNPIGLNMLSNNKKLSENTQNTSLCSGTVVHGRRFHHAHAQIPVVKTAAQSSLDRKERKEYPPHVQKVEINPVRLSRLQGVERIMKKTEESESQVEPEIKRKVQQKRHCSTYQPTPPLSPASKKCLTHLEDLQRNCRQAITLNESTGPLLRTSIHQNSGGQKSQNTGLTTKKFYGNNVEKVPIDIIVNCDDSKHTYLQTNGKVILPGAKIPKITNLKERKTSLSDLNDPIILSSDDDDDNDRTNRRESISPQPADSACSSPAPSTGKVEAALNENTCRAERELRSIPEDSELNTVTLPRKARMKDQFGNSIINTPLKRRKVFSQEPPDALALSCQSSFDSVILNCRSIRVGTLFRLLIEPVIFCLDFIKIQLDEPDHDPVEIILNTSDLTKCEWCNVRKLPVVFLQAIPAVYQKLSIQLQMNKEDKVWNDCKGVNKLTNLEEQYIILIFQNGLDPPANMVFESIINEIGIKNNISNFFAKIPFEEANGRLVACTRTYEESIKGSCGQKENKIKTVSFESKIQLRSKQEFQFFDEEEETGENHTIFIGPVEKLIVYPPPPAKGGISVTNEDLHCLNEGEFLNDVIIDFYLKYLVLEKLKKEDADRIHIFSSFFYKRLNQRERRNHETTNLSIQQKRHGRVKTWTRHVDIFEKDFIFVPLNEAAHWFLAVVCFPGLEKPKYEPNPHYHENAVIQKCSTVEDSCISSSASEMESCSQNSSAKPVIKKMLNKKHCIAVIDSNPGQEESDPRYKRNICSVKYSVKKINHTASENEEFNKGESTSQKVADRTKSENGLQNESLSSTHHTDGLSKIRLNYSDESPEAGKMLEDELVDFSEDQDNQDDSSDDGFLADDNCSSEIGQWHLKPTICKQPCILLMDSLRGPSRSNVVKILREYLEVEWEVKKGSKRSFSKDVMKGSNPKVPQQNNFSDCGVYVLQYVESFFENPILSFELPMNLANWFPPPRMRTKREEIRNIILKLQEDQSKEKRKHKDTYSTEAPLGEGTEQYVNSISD
- Format: functional
Activity calls are given as the source filed them.
parameter_measured: IC50

INSERT INTO results (smiles_notation, readout_value) VALUES
  ('CCOC(=O)CN1C(=O)S/C(=C\c2ccc(-c3cccc(C(=O)O)c3C)o2)C1=O', '18 µM (active)'),
  ('CCOc1cccc(-c2nc3cc(C)ccc3o2)c1', '15.6 µM (active)'),
  ('Cc1ccc(S(=O)(=O)NC(=NNC(=O)c2cccc(Cl)c2)c2ccccc2)cc1', '13.6 µM (active)'),
  ('Cn1c(SCc2ccc(C#N)cc2Cl)nc2ccccc21', '10.8 µM (active)');

----------
- assay_system: ATP-dependent molecular chaperone HSP82 (Candida albicans (strain WO-1) (Yeast), UniProt C4YTQ8)
- Sequence (C4YTQ8 whole entry): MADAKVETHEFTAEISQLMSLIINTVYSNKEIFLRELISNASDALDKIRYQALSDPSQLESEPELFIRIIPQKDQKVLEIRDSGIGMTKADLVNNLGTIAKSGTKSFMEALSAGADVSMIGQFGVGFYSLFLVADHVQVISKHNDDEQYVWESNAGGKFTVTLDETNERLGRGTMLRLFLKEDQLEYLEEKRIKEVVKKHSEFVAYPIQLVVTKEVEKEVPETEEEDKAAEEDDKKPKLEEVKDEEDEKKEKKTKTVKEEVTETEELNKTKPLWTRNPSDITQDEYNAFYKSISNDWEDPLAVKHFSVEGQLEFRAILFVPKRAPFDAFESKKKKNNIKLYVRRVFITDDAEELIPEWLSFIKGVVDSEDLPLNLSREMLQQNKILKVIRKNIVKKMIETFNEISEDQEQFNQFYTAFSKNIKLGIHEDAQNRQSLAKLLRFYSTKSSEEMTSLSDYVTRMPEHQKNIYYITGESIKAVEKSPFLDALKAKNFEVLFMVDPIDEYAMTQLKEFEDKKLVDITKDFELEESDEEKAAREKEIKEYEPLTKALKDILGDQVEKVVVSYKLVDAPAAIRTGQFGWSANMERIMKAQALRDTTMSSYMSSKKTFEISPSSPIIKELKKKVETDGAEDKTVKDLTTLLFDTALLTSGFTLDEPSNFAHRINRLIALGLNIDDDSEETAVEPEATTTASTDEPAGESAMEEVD
- protocol_details: steroid-induced GRE reporter decrease in yeast – S. cerevisiae, luminescence, Hsp90 inhibitor project, dose response (AID 2400);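 further: beta-galactosidase luminescence from glucocorticoid response element reporter as proxy for Hsp90 function; inhibitor potency where signal loss means Hsp90 inhibition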
- Assay type: functional, cell-based
Active and inactive are the calls of the source.
Catalogue of EC50 readings, one per entry.
parameter_measured: EC50

INSERT INTO assay_data (compound, readout_value) VALUES
  ('CC1(O)CC(c2ccc(Cl)cc2)=NN1C(=O)c1ccc([N+](=O)[O-])cc1 (configuration not stated)', '12.5 µM (active)'),
  ('CCCCc1c(O)n(-c2ccccc2OC)c(SCC(=O)Nc2cccc3ccccc23)nc1=O', '> 160 µM (inactive)'),
  ('C=CCn1c(N)nc2ccccc21', '> 160 µM (inactive)'),
  ('O=C(CCc1ccccc1)NNC(=S)NC(=O)c1ccccc1', '16.4 µM (active)'),
  ('O=C(NCc1ccccc1)c1sc(=S)n2c1[nH]c(=O)c1ccccc12', '6.61 µM (active)'),
  ('CCC(=O)NC(c1ccc(C)cc1)c1cc([N+](=O)[O-])c2cccnc2c1O (configuration not stated)', '> 150 µM (inactive)'),
  ('O=C(O)c1ccccc1-c1ccccc1C(=O)Nc1cccc(-c2nc3ccccc3o2)c1', '> 150 µM (inactive)');

----------
Catalogue of AC50 readings, one per entry.
- assay_system: Cytochrome P450 2C19 (Homo sapiens)
- Sequence (P33261 whole entry): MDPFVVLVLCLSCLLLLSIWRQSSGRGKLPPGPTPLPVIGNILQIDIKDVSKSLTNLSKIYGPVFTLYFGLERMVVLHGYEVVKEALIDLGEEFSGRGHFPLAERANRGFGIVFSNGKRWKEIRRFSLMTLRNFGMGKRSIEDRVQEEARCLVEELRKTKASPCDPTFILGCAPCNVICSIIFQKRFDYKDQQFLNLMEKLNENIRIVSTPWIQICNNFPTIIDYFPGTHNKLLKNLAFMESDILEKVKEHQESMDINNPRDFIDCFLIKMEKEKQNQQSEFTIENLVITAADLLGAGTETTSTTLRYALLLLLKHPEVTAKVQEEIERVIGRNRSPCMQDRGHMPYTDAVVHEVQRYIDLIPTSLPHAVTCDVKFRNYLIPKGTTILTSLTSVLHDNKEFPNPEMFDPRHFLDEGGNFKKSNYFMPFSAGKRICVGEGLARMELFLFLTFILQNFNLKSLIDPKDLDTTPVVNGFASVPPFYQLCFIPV
- protocol_details: Cytochrome panel assay with activity outcomes. Panel member name: p450-cyp2c19 Compounds with AC50 equal or less than 10 uM are considered active
- Assay type: functional
- cond: read-out: AC50
parameter_measured: AC50

INSERT INTO measurements (molecule, assay_system, readout_value) VALUES
  ('Cc1ccc(Sc2ccc(NC(=O)c3ccc(S(C)(=O)=O)cc3Cl)cc2)cc1', 'Cytochrome P450 2C19 (Homo sapiens)', '39.8 µM (inconclusive)'),
  ('CNC(=O)CCc1nc(-c2ccc(C(C)(C)C)cc2)no1', 'Cytochrome P450 2C19 (Homo sapiens)', '39.8 µM (inconclusive)'),
  ('COc1ccccc1N(CC(=O)NCC1CCCO1)C(=O)CNS(=O)(=O)c1ccc(C)cc1 (stereo unspecified)', 'Cytochrome P450 2C19 (Homo sapiens)', '35.5 µM (inconclusive)'),
  ('O=C1NCCc2c1[nH]c1ccccc21', 'Cytochrome P450 2C19 (Homo sapiens)', '15.8 µM (inconclusive)'),
  ('CC1CCc2cc(F)ccc2N1C(=O)CSc1n[nH]c2c3cc(F)ccc3nc-2n1 (stereo unspecified)', 'Cytochrome P450 2C19 (Homo sapiens)', '0.562 µM (inconclusive)'),
  ('CC(C)CNS(=O)(=O)c1cc(C(=O)N2CC(C)OC(C)C2)c(Cl)cc1Cl (stereo unspecified)', 'Cytochrome P450 2C19 (Homo sapiens)', '25.1 µM (inconclusive)'),
  ('CC(C)(C)c1nnc(NC(=O)NS(=O)(=O)c2ccccc2)s1', 'Cytochrome P450 2C19 (Homo sapiens)', '39.8 µM (inconclusive)'),
  ('Cc1ccc(C)c(S(=O)(=O)NC(CC(C)C)C(=O)O)c1 (stereo unspecified)', 'Cytochrome P450 2C19 (Homo sapiens)', '39.8 µM (inconclusive)'),
  ('COCCn1c(=O)c(-c2cccc(C#N)c2)nc2cnc(Oc3ccccc3)nc21', 'Cytochrome P450 2C19 (Homo sapiens)', '39.8 µM (inconclusive)'),
  ('CN1CCN(S(=O)(=O)c2ccc3ncc(C(=O)O)c(O)c3c2)CC1', 'Cytochrome P450 2C19 (Homo sapiens)', '22.4 µM (inconclusive)'),
  ('Cc1cccc(OCC(=O)N2CCC(N3CCCCCC3)CC2)c1', 'Cytochrome P450 2C19 (Homo sapiens)', '39.8 µM (inconclusive)'),
  ('COc1cccc(Cn2c(=O)c(-c3cccs3)nc3cnc(N(C)C)nc32)c1', 'Cytochrome P450 2C19 (Homo sapiens)', '0.00631 µM (inconclusive)'),
  ('C=CCc1cccc2cc(C(=O)N(CC)CC)c(=O)oc12', 'Cytochrome P450 2C19 (Homo sapiens)', '28.2 µM (inconclusive)'),
  ('C=CCNC(S)=NNc1ncnc2sc3c(c12)CC(C)(C)OC3', 'Cytochrome P450 2C19 (Homo sapiens)', '8.91 µM (inconclusive)'),
  ('CCCCOc1ccc(S(=O)(=O)Nc2cccnc2)cc1', 'Cytochrome P450 2C19 (Homo sapiens)', '0.355 µM (inconclusive)'),
  ('CCCC[C@H]1C[C@@H]1[C@@H]1N(P(=O)(c2ccccc2)c2ccccc2)[C@](CO)(c2ccccc2)CC12CC2', 'Cytochrome P450 2C19 (Homo sapiens)', '7.94 µM (inconclusive)'),
  ('O=C(COC(=O)c1cnccn1)NCc1ccccc1', 'Cytochrome P450 2C19 (Homo sapiens)', '39.8 µM (inconclusive)'),
  ('CCC(C)NS(=O)(=O)c1ccc(OCC(=O)Nc2ccc3c(c2)OCCO3)cc1 (stereo unspecified)', 'Cytochrome P450 2C19 (Homo sapiens)', '7.08 µM (inconclusive)'),
  ('CCCNc1nc(NCC)nc(OC)n1', 'Cytochrome P450 2C19 (Homo sapiens)', '17.8 µM (inconclusive)'),
  ('Cc1ccc(S(=O)(=O)Oc2ccc(/C=C(/NC(=O)c3ccccc3)C(=O)Nc3ccccc3)cc2)cc1', 'Cytochrome P450 2C19 (Homo sapiens)', '0.316 µM (inconclusive)'),
  ('COCC(=O)N1CCC2(CC1)CCN(c1cccc(-c3ccccc3)c1)CC2', 'Cytochrome P450 2C19 (Homo sapiens)', '39.8 µM (inconclusive)');
